# System: A549/ATCC NSCLC
# protocol_details: NCI-60 one-dose screen, 48 h (100 = growth as untreated, 0 = no growth, -100 = all killed)
# condition_context: 10 µM unless noted
This is part of a sample that, as a whole, favours compounds with a hit. Of some 83,000 tested, about 20% had one in any assay.
reported_endpoint: growth (%)

CN(CCC#N)C(=O)Nc1ccccc1; 101
C=C1C(=O)O[C@H]2[C@H]1CC/C(COC(=O)N1CCC[C@H]1C(=O)Nc1ccc(OC)c(C(N)=O)c1O)=C\CC[C@@]1(C)O[C@@H]21; 75.4
CC[C@]12C=CCN3CC[C@@]4(c5cc(NC(=O)CCC(=O)O[C@H]6CC[C@H]7[C@@H]8CC[C@H]9CC(=O)CC[C@]9(C)[C@H]8CC[C@]67C)c(OC)cc5N(C)[C@H]4[C@@](O)(C(=O)OC)[C@@H]1OC(C)=O)[C@@H]32; 56.7
CCN(CC)CC#CCOC(=O)[C@]1(C)CCC[C@]2(C)[C@H]3C[C@H]4C(C(C)C)=C[C@]3(CC[C@H]21)[C@@H]1C(=O)CCC(=O)[C@@H]14; 48.1

###

# Test system: UO-31 renal
# protocol_details: NCI-60 one-dose screen, 48 h
# condition_context: 10 µM unless noted
About 83,000 compounds went through this panel and 20% of them were active in at least one assay; those are over-represented in the sample as a whole. The source made the active and inactive calls. Rule for the calls: active = growth percent below 10; inactive = the rest.
Outcome codes: yes (active), no (inactive)

O=C1Nc2ccccc2C12C=C(c1ccccc1)Nc1c2c(-c2ccccc2)nn1-c1ccccc1 (stereo not given); no
Cc1[nH]c(N=Nc2ccccc2)nc1N=Nc1ccccc1; yes
COc1cccc2c1-c1ccccc1C2=O; no
Cc1nc2sc(C(=O)Nc3ccccc3)c(N)c2cc1C(C)O (stereo not given); no
CCCn1cc(/C=N\N=C2\C(=O)Nc3ccc(C)cc32)c2ccccc21; no
C=C(C)[C@@H]1CC[C@]2(C(=O)OCCCC[P+](c3ccccc3)(c3ccccc3)c3ccccc3)CC[C@]3(C)[C@H](CC[C@@H]4[C@@]5(C)CC[C@H](OC(=O)C(Cl)Cl)C(C)(C)[C@@H]5CC[C@]43C)[C@@H]12; yes
C=C1C(=O)O[C@H]2[C@H]1CC/C(COC(=O)c1cccnc1)=C\CC[C@@]1(C)O[C@@H]21; no
Cc1ccc(CS/C(=C\c2ccc([N+](=O)[O-])cc2)C(=O)c2ccc(F)cc2)cc1; no
C=C1C(=O)O[C@H]2[C@H]1CC/C(COC(=O)CCCCCCC(=O)OC/C1=C/CC[C@@]3(C)O[C@H]3[C@H]3OC(=O)C(=C)[C@@H]3CC1)=C\CC[C@@]1(C)O[C@@H]21; yes
C/C(=N/Nc1nc2ccccc2n1C)c1ccccn1; yes
CN(C)c1ccc(-c2ccc3[nH]c(=O)nc(-c4ccc(F)cc4)c3c2)cn1; no
O=C(NCc1ccccc1)c1ccc2c(c1)NC(=O)[C@@H]1CCCN21; no
CCc1n(Cc2ccc3ccccc3c2)c2ccccc2[n+]1Cc1ccc2ccccc2c1; no
Cc1cnc(SCc2ccc(Cl)cc2Cl)nc1Nc1ccc(Cl)c(Cl)c1; no
O=C1CS/C(=N/c2nnc(-c3ccc(O)cc3)s2)N1; no
O=C(Nc1nc(-c2ccccc2Cl)cs1)c1cc(-c2ccc(Br)cc2)nc2ccccc12; no
C#Cc1ccccc1NC(=O)c1sc2nc3c(cc2c1N)CCCCC3; no
COc1ccc(-c2nc(C#N)c(NCC(c3ccco3)N3CCCC3)o2)cc1 (stereo not given); no
C#C[C@@]1(O)[C@@H](CO)O[C@@H](n2ccc3c(N)ncnc32)[C@@H]1O; yes
C=CCn1c(SCC(=O)Nc2ccc(C(=O)/C=C/c3cc(OC)c(OC)c(OC)c3)cc2)nnc1-c1ccc(Cl)cc1; no

###

Measured growth of individual entries
# Test system: LOX IMVI melanoma
# protocol_details: NCI-60 one-dose screen, 48 h (100 = growth as untreated, 0 = no growth, -100 = all killed)
# condition_context: 10 µM unless noted
About 83,000 compounds went through this panel and 20% of them were active in at least one assay; those are over-represented in the sample as a whole.
reported_endpoint: growth (%)

O=CN1N=C(c2ccc3c(c2)OCO3)CC1c1cccc(Nc2ccnc3cc(C(F)(F)F)ccc23)c1 (centres undefined); 76
CN(C)CCCn1c2c(c3cc(-c4cccc(S(N)(=O)=O)c4)ccc3c1=O)C(=O)c1ccccc1-2; 56.3
C#C[C@@]1(O)[C@@H](CO)O[C@@H](n2cc(F)c3c(N)ncnc32)[C@@H]1O; -66.3
Cc1nc2sc(C(=O)Nc3ccccc3)c(N)c2cc1C(C)O (centres undefined); 47.5
Cc1cc(C)cc(Nc2nccc(-c3c(-c4ccc(F)cc4)ncn3C3CCNCC3)n2)c1; -81.3
C#CC[C@@H]1C[C@]2(C)[C@H]3CC[C@@H]4[C@H]5[C@H](C(=C)C)CC[C@]5(C(=O)O)CC[C@@]4(C)[C@]3(C)CC[C@H]2C(C)(C)[C@H]1O; 44.3
CC(C)(C)CC(C)(C)Cc1ccc(OCCOCC[N+](C)(C)Cc2ccccc2)cc1; 10.5
Cc1nc2sc(C(=O)Nc3cccc4ccccc34)c(N)c2cc1C(C)O (centres undefined); 26.9
Nc1ccc(C2=NN(C(=O)c3cc(-c4ccc(Cl)cc4)nc4ccccc34)C(c3ccc(Cl)cc3)C2)cc1 (centres undefined); 48.3

###

# Tested on: SW-620 colon
# protocol_details: NCI-60 one-dose screen, 48 h (100 = growth as untreated, 0 = no growth, -100 = all killed)
# condition_context: 10 µM unless noted
Compounds without any hit were thinned out: in the full panel of roughly 83,000, 20% have a hit.
Measured growth of individual entries
reported_endpoint: growth (%)

CC[C@]12C=CCN3CC[C@@]4(c5cc(NC(=O)CCC(=O)O[C@H]6CC[C@H]7[C@@H]8CC[C@H]9CC(=O)CC[C@]9(C)[C@H]8CC[C@]67C)c(OC)cc5N(C)[C@H]4[C@@](O)(C(=O)OC)[C@@H]1OC(C)=O)[C@@H]32; 85.6
COC(=O)CCc1cc(O)c2c(c1)[C@@H](C(=O)OC)[C@H](c1ccc(O)c(O)c1)O2; 63.8
Nc1ccc(C2=NN(C(=O)c3cc(-c4ccc(Cl)cc4)nc4ccccc34)C(c3ccc(Cl)cc3)C2)cc1 (stereo not drawn); 29.6

###

# Test system: MDA-MB-231 breast
# protocol_details: NCI-60 one-dose screen, 48 h
# condition_context: 10 µM unless noted
About 83,000 compounds went through this panel and 20% of them were active in at least one assay; those are over-represented in the sample as a whole. Active and inactive are the calls of the source. The calls were made as follows: active = growth percent below 10; inactive = the rest.
Outcome codes: active, inactive

O=CN1N=C(c2ccc(F)cc2)CC1c1cccc(Nc2ccnc3cc(C(F)(F)F)ccc23)c1 (stereo unspecified); inactive
CC[C@]12C=CCN3CC[C@@]4(c5cc(NC(=O)CCC(=O)O[C@H]6CC[C@H]7[C@@H]8CC[C@H]9CC(=O)CC[C@]9(C)[C@H]8CC[C@]67C)c(OC)cc5N(C)[C@H]4[C@@](O)(C(=O)OC)[C@@H]1OC(C)=O)[C@@H]32; inactive
COc1cc2cc(c1Cl)N(C)C(=O)C[C@H](OC(=O)[C@H](C)N(C)C(=O)CCS)C[C@]1(C)O[C@H]1[C@H](C)[C@@H]1C[C@@](O)(NC(=O)O1)[C@H](OC)/C=C/C=C(\C)C2; inactive
CCCNc1nc(C)[nH]c(=O)c1S; inactive
C#CCN(CCCOc1ccc(Cl)cc1Cl)CCCSC(=O)CCCCCN1/C(=C\C=C2/CCCC(/C=C/C3=[N+](CCCCCC(=O)[O-])c4ccccc4C3(C)C)=C2Cl)C(C)(C)c2ccccc21; active
CCOC(=O)CC[C@H](NC(=O)c1ccc(NC)c2ccccc12)C(=O)OCC; inactive

###

# Tested on: SK-MEL-2 melanoma
# protocol_details: NCI-60 one-dose screen, 48 h
# condition_context: 10 µM unless noted
The panel holds about 83,000 compounds, 20% with a hit somewhere; the sample as a whole holds those more often. Active and inactive are the calls of the source. The calls were made as follows: active = growth percent below 10; inactive = the rest.
Outcome codes: active, inactive

C/C(=C\c1cnc(C)s1)[C@@H]1C[C@@H]2O[C@@H]2CCC[C@H](C)[C@H](O)[C@@H](C)C(=O)C(C)(C)[C@@H](O)CC(=O)O1; inactive
CCOC(=O)c1c(C)nc2c(c1N)/C(=C/c1ccccn1)C(=O)N2Cc1ccccc1; active
COCCOC(=O)COc1ccc(OC)cc1; inactive
C[C@H]1[C@H](C)CC[C@]2(C(=O)OCCOCCOCC[P+](c3ccccc3)(c3ccccc3)c3ccccc3)CC[C@]3(C)C(=CC[C@@H]4[C@@]5(C)CC[C@H](OC(=O)C(Cl)Cl)C(C)(C)[C@@H]5CC[C@]43C)[C@H]12; active
CCCCCCCCCCCCCC1=NCC[N+]1(CCO)Cc1ccccc1 (stereo unspecified); active
Cc1c(C(=O)Nc2nc3ccccc3[nH]2)cnn1-c1ccccn1; inactive
COc1cc(/C=C/C(=O)c2cccs2)ccc1OCc1ccc(Cl)nc1; inactive
COc1ccc(NC(=O)Nc2ccc(Nc3nc(C)cc(Nc4ccc(C)cc4)n3)cc2)cc1; active
O=C(CSC(=S)N1CCCCC1)Nc1ccccc1; inactive
CCOC(=O)C1=C(C)n2nc(CC#N)c(C#N)c2NC1c1ccc(CC)cc1 (stereo unspecified); inactive
N#Cc1ccc(N2Cc3cc(Cl)ccc3OC3=C2C(=O)N(Cc2ccccc2)C3=O)cc1; active
Nc1c(C(=O)Nc2ccccn2)sc2nc3c(cc12)CCCCCC3; inactive
O=C(Nc1cc(Nc2ncccc2-c2ncnc3nc[nH]c23)ccc1F)c1cc(C(F)(F)F)cc(C(F)(F)F)c1; active
O=c1c2ccccc2oc2ccc(OCCCCCCN3CCCCCC3)cc12; inactive
O=CN1N=C(c2ccc(F)cc2)CC1c1cccc(Nc2ccnc3cc(C(F)(F)F)ccc23)c1 (stereo unspecified); inactive
O=C(Nc1ccccc1)NS(=O)(=O)c1c[nH]c(=S)[nH]c1=O; inactive
C=C(C)[C@@H]1CC[C@]2(C(=O)O)CC[C@]3(C)[C@H](CC[C@@H]4[C@@]5(C)C[C@@H](CC#Cc6ccccc6C)C(=O)C(C)(C)[C@@H]5CC[C@]43C)[C@@H]12; inactive
OCCNc1nc(NCCO)nc(Nc2ccc(C3=NN(c4ccc(Cl)cc4)C(c4ccc(Cl)cc4)C3)cc2)n1 (stereo unspecified); inactive
CCOCc1cc(C(C)(C)C)ccc1O; inactive
CS(=O)(=O)O[C@@H]1C(=O)N(c2cc3c4ccccc4ccc3c3ccccc23)[C@H]1c1ccc(F)cn1; inactive
N#Cc1c(NC(=O)c2cccs2)[n+]([O-])c2cc(C(F)(F)F)ccc2[n+]1[O-]; inactive
C=C1C(=O)O[C@H]2[C@H]1CC/C(C=Nc1c(N)cc(C(F)(F)F)cc1Br)=C\CC[C@@]1(C)O[C@@H]21; active
C[C@H](Oc1cc(-c2cnn(C3CCNCC3)c2)cnc1N)c1c(Cl)ccc(F)c1Cl; inactive
O=C(O)C(C(=O)O)c1cccc2ccccc12; inactive
NC(=O)C(O)(c1ccccc1)c1ccccc1; inactive
COc1ccc2c(c1)/C(=C1\S/C(=N/c3nnc(C)s3)NC1=O)C(=O)N2Cc1ccc(Cl)cc1; inactive
COc1cc(C(=O)Nc2cc(O)c(C/C=C(\C)CCC=C(C)C)c(O)c2)cc2c1O[C@]1(C)CC[C@@H](O)C(C)(C)[C@H]1C2; active
Cc1cccc(C)c1Nc1nnc(-c2ccc(F)cc2)o1; inactive
COC(=O)c1oc2c(C(=O)/C=C/c3ccc(OC)cc3)c(OCCCN3CCCCC3)ccc2c1C; inactive
COC1=CC2C=C(C3N(c4ccccc4)NC(=O)[C@@H]4CCCN34)C(=O)NC2C=C1 (stereo partly specified); inactive
COCCc1n(Cc2ccc3ccccc3c2)c2ccccc2[n+]1Cc1ccc2ccccc2c1; active
O=C1NC(c2ccc(F)cc2)N=C2C(c3ccccc3)=NOC12 (stereo unspecified); inactive
CC[C@]12C=CCN3CC[C@@]4(c5cc(NC(=O)CCC(=O)O[C@H]6CC[C@H]7[C@@H]8CC[C@H]9CC(=O)CC[C@]9(C)[C@H]8CC[C@]67C)c(OC)cc5N(C)[C@H]4[C@@](O)(C(=O)OC)[C@@H]1OC(C)=O)[C@@H]32; inactive
CCc1c(C(=O)N[C@@H](C(=O)OCc2ccccc2)C(C)O)[nH]c2ccc(Cl)cc12 (stereo partly specified); inactive
COc1cc(C2=N/C(=C\c3cc4ccccc4nc3Oc3ccccc3)C(=O)N2C(=N)N)cc(OC)c1OC; inactive
COc1ccc(Sc2[nH]c(C(C)=O)c3ccccc23)cc1; inactive

Where do these numbers come from? They come from PubChem BioAssay (NCI).
